Molecular target: MCR-1 (Homo sapiens, UniProt Q01726)
Construct: expressed in transfected cells; host or cells: HEK 293
Sequence (Q01726 whole entry): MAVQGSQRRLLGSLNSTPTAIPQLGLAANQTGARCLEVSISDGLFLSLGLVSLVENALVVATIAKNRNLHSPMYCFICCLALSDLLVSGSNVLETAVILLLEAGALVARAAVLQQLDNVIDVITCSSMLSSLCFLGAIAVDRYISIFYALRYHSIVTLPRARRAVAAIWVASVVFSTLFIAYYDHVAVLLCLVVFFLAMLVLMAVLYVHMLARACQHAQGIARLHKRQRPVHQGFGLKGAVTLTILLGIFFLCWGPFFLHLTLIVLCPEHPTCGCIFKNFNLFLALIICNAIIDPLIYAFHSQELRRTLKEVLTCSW
Test: Melanocortin receptor binding assay, competition with 125I-HP 467, HEK 293 cells expressing hMCR-1
Conditions: TRG 2406 and TRG 2407 libraries; inhibition of binding of 125I-HP 467; read-out: MC-1 IC50
Assay Endpoint: IC50 (nM)

Compound: CNC(CN)CCCCN1Cc2ccccc2C(CNCc2ccccc2O)C1c1cccc(Oc2ccccc2)c1 (centres unmarked)
Assay Endpoint: IC50
Measurement: 850

A: CCNc1ccc(C2C(CNc3cccc(OCC)c3)c3ccccc3CN2CCCCC(CN)NC)cc1 (centres unmarked)
B: CCNc1ccc(C2C(CNc3cccc(Cl)c3)c3ccccc3CN2CCCCC(CN)NC)cc1 (centres unmarked)
A or B : whose IC50 is greater? The response must carry the label of the picked entry.
B

====

Molecular target: MCR-1 (Homo sapiens, UniProt Q01726)
Construct: expressed in transfected cells; host or cells: HEK 293
Assay: Melanocortin receptor binding assay, competition with 125I-HP 467, HEK 293 cells expressing hMCR-1
Settings: competition with 125I-HP 467, HEK 293 cells expressing MCR-1; read-out: MC-1 IC50
Description: All cell culture media and reagents were obtained from GibcoBRL (Gaithersburg Md.), except for COSMIC CALF SERUM (HyClone; Logan Utah). Cells were suspended in PBS, 10% COSMIC CALF SERUM and 1 mM CaCl2. […] To assay isoquinoline compounds, binding assays were performed in duplicate in a 96 well format. […] Cells were harvested on GF/B filter plates as described above and counted.
Assay Endpoint: IC50 (nM)

I: CCNc1ccc(C2C(CNC3CCCCC3)c3ccccc3CN2CCCCC(CN)NCc2ccc(OC)cc2)cc1 (stereo not shown)
II: COCCNC(CN)CCCN1Cc2ccccc2C(CNCCc2ccccc2)C1c1ccc(-c2ccccc2)cc1 (stereo not shown)
III: NCC(CCCCN1Cc2ccccc2C(CNC2CCCCC2)C1c1ccc(-c2ccccc2)cc1)NCc1ccccc1 (stereo not shown)
IV: CCCCNc1ccc(C2C(CN)c3ccccc3CN2CCCC(CN)NCCc2ccccc2)cc1 (stereo not shown)
Please rank the 4 items above; order by IC50, the highest number leading. List labels; respect the requested ordering.
II, III, I, IV
(II: 1540 nM, III: 420 nM, I: 130 nM, IV: 80 nM)

====

Molecular target: MCR-1 (Homo sapiens)
Construct: expressed in transfected cells; host or cells: HEK 293
Assay: Melanocortin receptor binding assay, competition with 125I-HP 467, HEK 293 cells expressing hMCR-1
Conditions: TRG 2414 library; inhibition of binding of 125I-HP 467, HEK 293 cells expressing MCR-1; read-out: MC-1 IC50
Assay Endpoint: IC50 (µM)

Look over these answered cases.
Molecule: NCC(N)CCCCN1Cc2ccccc2C(CNCc2ccccc2)C1c1ccccc1Br (centres unmarked) [Cmpd 229]
Result Units: µM
IC50: 8.63

Molecule: COc1ccc(CCNCC2c3ccccc3CN(CCCCC(N)CN)C2c2ccccc2Br)cc1 (centres unmarked) [Cmpd 225]
Result Units: µM
IC50: 4.52

Molecule: COc1cccc(CNCC2c3ccccc3CN(CCCCC(CN)NCCc3ccccc3)C2c2ccccc2Br)c1 (centres unmarked) [Cmpd 218]
Result Units: µM
IC50: 8.2

Molecule: COc1ccccc1CCNCC1c2ccccc2CN(CCCCC(CN)NCC(C)c2ccc(CC(C)C)cc2)C1c1ccccc1Br (centres unmarked) [Cmpd 212]
Result Units: µM
IC50: 18.3

Molecule: NCC(CCCCN1Cc2ccccc2C(CNCc2ccccc2)C1c1ccccc1Br)NCCc1ccccc1 (centres unmarked) [Cmpd 230]
Result Units: µM
IC50: 6.48

P: CC(C)Cc1ccc(C(C)CNC(CN)CCCCN2Cc3ccccc3C(CNC3CCCCCC3)C2c2ccccc2Br)cc1 (centres unmarked) [Cmpd 236]
Q: COc1ccc(CNCC2c3ccccc3CN(CCCCC(N)CN)C2c2ccccc2Br)cc1 (centres unmarked) [Cmpd 221]
R: NCC(CCCCN1Cc2ccccc2C(CNCc2ccccc2C(F)(F)F)C1c1ccccc1Br)NCc1ccccc1 (centres unmarked) [Cmpd 203]
Hello, I need these entries ordered by IC50, highest reading first. Thanks! List each label, following the requested order.
R, P, Q
(R: 30.2 µM, P: 14 µM, Q: 6.61 µM)

====

Biological target: MCR-4 (Homo sapiens, UniProt P32245)
Construct: expressed in transfected cells; host or cells: HEK 293
Sequence (P32245 whole entry): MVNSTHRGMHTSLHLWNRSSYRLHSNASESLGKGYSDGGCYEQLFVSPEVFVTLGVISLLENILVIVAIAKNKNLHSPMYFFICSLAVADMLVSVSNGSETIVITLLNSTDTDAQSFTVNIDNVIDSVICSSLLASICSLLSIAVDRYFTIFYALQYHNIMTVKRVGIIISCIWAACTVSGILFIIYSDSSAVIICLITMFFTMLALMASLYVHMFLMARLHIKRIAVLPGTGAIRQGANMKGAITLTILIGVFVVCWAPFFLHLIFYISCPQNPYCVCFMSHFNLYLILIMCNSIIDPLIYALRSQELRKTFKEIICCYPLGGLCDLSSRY
Assay: Melanocortin receptor binding assay, competition with 125I-HP 467, HEK 293 cells expressing hMCR-4
Details: TRG 2414 library; inhibition of binding of 125I-HP 467, HEK 293 cells expressing MCR-4; read-out: MC-4 IC50
Assay Endpoint: IC50 (µM)

Compound: COc1ccc(CNCC2c3ccccc3CN(CCCCC(N)CN)C2c2ccccc2Br)cc1 (centres unmarked)
IC50 / µM: 1.83

Compound: COc1ccccc1CCNCC1c2ccccc2CN(CCCCC(CN)NCc2ccccc2)C1c1ccccc1Br (centres unmarked)
IC50 / µM: 4.21

Compound: CCCOc1ccc(C2C(CNC3CCCCCC3)c3ccccc3CN2CCCCC(N)CN)cc1 (centres unmarked)
IC50 / µM: 6.59

P: NCC(N)CCCCN1Cc2ccccc2C(CNCCc2cccc(Cl)c2)C1c1ccccc1Br (centres unmarked)
Q: NCC(CCCCN1Cc2ccccc2C(CNC2CCCCC2)C1c1ccccc1Br)NCc1ccccc1 (centres unmarked)
R: NCC(CCCCN1Cc2ccccc2C(CNCc2ccccc2C(F)(F)F)C1c1ccccc1Br)NCc1ccccc1 (centres unmarked)
S: NCC(N)CCCCN1Cc2ccccc2C(CNCc2ccccc2)C1c1ccccc1Br (centres unmarked)
T: CCCOc1ccc(C2C(CNCCc3ccc(OC)cc3)c3ccccc3CN2CCCCC(CN)NCC(C)c2ccc(CC(C)C)cc2)cc1 (centres unmarked)
Put these in order: smallest IC50 first, largest last. Put the labels in the order asked and list them.
S, P, Q, T, R

====

Molecular target: MCR-1 (Homo sapiens)
Construct: expressed in transfected cells; host or cells: HEK 293
Assay: Melanocortin receptor binding assay, competition with 125I-HP 467, HEK 293 cells expressing hMCR-1
Settings: displacement of 125I-HP 467 at 10 μM isoquinoline compound; first of duplicate
Assay Endpoint: % Disp. MC-1 10 μM (%)

Compound: CNC(CN)CN1Cc2ccccc2C(CNC2CCCCC2)C1c1ccc2ccccc2n1 (mixture of isomers) [TRG 2405-112]
% Disp. MC-1 10 μM, %: 42.2
//
Compound: CNC(CN)CN1Cc2ccccc2C(CNC2CCCCC2)C1c1ccccc1F (stereo not shown) [TRG 2405-106]
% Disp. MC-1 10 μM, %: 40.7
//
Compound: CNC(CN)CN1Cc2ccccc2C(CNC2CCCCC2)C1c1c(F)cccc1F (stereo not shown) [TRG 2405-101]
% Disp. MC-1 10 μM, %: 34
//
Compound: CNC(CN)CN1Cc2ccccc2C(CNC2CCCCC2)C1c1cccc(Oc2ccc(Cl)c(Cl)c2)c1 (stereo not shown) [TRG 2405-123]
% Disp. MC-1 10 μM, %: 47.9

====

Target: MCR-1 (Homo sapiens, UniProt Q01726)
Construct: expressed in transfected cells; host or cells: HEK 293
Experiment: Melanocortin receptor binding assay, competition with 125I-HP 467, HEK 293 cells expressing hMCR-1
Settings: inhibition of binding of 125I-HP 467, HEK 293 cells expressing MCR-1; read-out: MC-1 IC50
Assay Endpoint: IC50 (nM)

Compound: COc1ccc(CNC(CN)CCCCN2Cc3ccccc3C(CNCCc3ccc(Oc4ccccc4)cc3)C2c2cc(C(F)(F)F)cc(C(F)(F)F)c2)cc1 (stereo not shown) [TRG 2421-29]
Assay Endpoint: IC50
Measurement: 5100
--
Compound: CCNc1ccc(C2C(CNCCc3ccccc3)c3ccccc3CN2CCCC(CN)NCc2ccccc2)cc1 (stereo not shown) [TRG 2411-158]
Assay Endpoint: IC50
Measurement: 100
--
Compound: NCC(CCCCN1Cc2ccccc2C(CNCCc2ccc(Cl)cc2)C1c1cc(C(F)(F)F)cc(C(F)(F)F)c1)NCc1ccc(Br)cc1 (stereo not shown) [TRG 2421-33]
Assay Endpoint: IC50
Measurement: 6930
--
Compound: CCNc1ccc(C2C(CNCCc3ccccc3)c3ccccc3CN2CCC[C@@H](CN)NCCCCOc2ccccc2)cc1 (stereo partly shown) [2424#5]
Assay Endpoint: IC50
Measurement: 50

I: CCCOc1ccc(C2C(CNCCc3ccccc3)c3ccccc3CN2CCCC(CN)NCCc2ccccc2)cc1 (stereo not shown) [TRG 2412-23]
II: CCCCNc1ccc(C2C(CNC3CCCCC3)c3ccccc3CN2CCCC(CN)NCc2ccc(OC)cc2)cc1 (stereo not shown) [TRG 2411-212]
// compare measured IC50, left I , right II , return larger API: response body contains the label of the selected item.
I
(I: 350 nM, II: 100 nM)

====

Target: MCR-1 (Homo sapiens, UniProt Q01726)
Construct: expressed in transfected cells; host or cells: HEK 293
Experiment: Melanocortin receptor binding assay, competition with 125I-HP 467, HEK 293 cells expressing hMCR-1
Settings: inhibition of binding of 125I-HP 467, HEK 293 cells expressing MCR-1; TRG 2414 library; read-out: MC-1 IC50
pIC50: −log10 of the molar value.
Assay Endpoint: pIC50

For orientation, consider the following solved cases.
Compound: CC(C)Cc1ccc(C(C)CNC(CN)CCCCN2Cc3ccccc3C(CNC3CCCCCC3)C2c2ccc(Cl)cc2Cl)cc1 (centres unmarked)
pIC50: 5.06
//
Compound: NCC(CCCCN1Cc2ccccc2C(CNC2CCCCCC2)C1c1ccc(Cl)cc1Cl)NCCc1ccccc1 (centres unmarked)
pIC50: 5.45

1: COc1ccc(CCNCC2c3ccccc3CN(CCCCC(CN)NCCc3ccccc3)C2c2ccc(Cl)cc2Cl)cc1 (mixture of isomers)
2: NCC(CCCCN1Cc2ccccc2C(CNCCc2cccc(Cl)c2)C1c1cc(C(F)(F)F)cc(C(F)(F)F)c1)NCc1ccccc1 (centres unmarked)
3: CCCOc1ccc(C2C(CNCCc3ccccc3OC)c3ccccc3CN2CCCCC(CN)NCCc2ccccc2)cc1 (centres unmarked)
4: COc1ccccc1CCNCC1c2ccccc2CN(CCCCC(CN)NCC(C)c2ccc(CC(C)C)cc2)C1c1cccc(Oc2ccccc2)c1 (mixture of isomers)
Please list the entries, largest pIC50 first. Enter labels, ranked according to the request.
3, 1, 2, 4
(3: 5.75, 1: 5.40, 2: 4.90, 4: 4.37)

P: COc1ccccc1CCNCC1c2ccccc2CN(CCCC[C@H](N)CN)C1c1cc(C(F)(F)F)cc(C(F)(F)F)c1 (some centres unmarked)
Q: COc1cccc(CNCC2c3ccccc3CN(CCCCC(CN)NCc3ccccc3)C2c2cc(C(F)(F)F)cc(C(F)(F)F)c2)c1 (centres unmarked)
R: CC(C)Cc1ccc(C(C)CNC(CN)CCCCN2Cc3ccccc3C(CNC3CCCCC3)C2c2ccc(Oc3ccccc3)cc2)cc1 (centres unmarked)
S: COc1ccc(CCNCC2c3ccccc3CN(CCCCC(N)CN)C2c2ccc(Oc3ccccc3)cc2)cc1 (centres unmarked)
# rank by pIC50, ascending (min first) // ordering of labels required in reply
R, Q, P, S
(R: 4.76, Q: 5.02, P: 5.42, S: 5.69)

P: NCC(N)CCCCN1Cc2ccccc2C(CNCc2ccccc2)C1c1ccc(Oc2ccccc2)cc1 (centres unmarked)
Q: NCC(CCCCN1Cc2ccccc2C(CNCCc2cccc(Cl)c2)C1c1cccc(Oc2ccccc2)c1)NCc1ccccc1 (centres unmarked)
Between the two listed entries P and Q , which has its pIC50 at the higher number? Label of pick, please.
P

a: NCC(N)CCCCN1Cc2ccccc2C(CNC2CCCCC2)C1c1cc(C(F)(F)F)cc(C(F)(F)F)c1 (centres unmarked)
b: COc1ccc(CNCC2c3ccccc3CN(CCCCC(CN)NCc3ccccc3)C2c2ccc(Oc3ccccc3)cc2)cc1 (centres unmarked)
Lab log: flag the item ( a or b ) with the smaller pIC50 figure. Refer to your chosen entry by its label in the reply.
a
